study-system: T1, STXBP5 peptide complexed with HLA-A*02:01 on T2 cells (human)
T1 construct: whole, on cells
test: flow cytometry, peptide-loaded T2 cells;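 note: binding of single-chain Fv antibody constructs, raised in XenoMouse, to peptide-pulsed T2 cells measured by flow cytometry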
// reported Signal/background for each item listed

| binder | Signal/background |
| --- | --- |
| 18182-A4 (scFv, scFv in bacterial lysate, detected with anti-Flag M2) scFv: EVQLLESGGGVVQPGRSLRLSCAASGFTFSSYAMTWVRQAPGQGLEWVSSISGSGGGTYYAASVKGRFTISRDNSKNTLYLQMNSLRAEDTAVYYCATGKGVHLGFDYWGQGTLVTVSSGGGGSGGGGSGGGGSELVLTQPPSVSVAPGQTARITCGGNNIGSKSVHWYQQKPGQAPVLVVYDDNDRPSGIPERFSGSNFGNTATLIISRVAAGDEADYYCQVWDSSSDHVVFGGGTKLTVL | 0.8 |
| 18179-B12 (scFv, scFv in bacterial lysate, detected with anti-Flag M2) scFv: EVQLLESGGGLVQPGGSLRLSCAASGFTFSNAWMSWVRQAPGKGLEWVGRIKGNTYGGTTDYAAPVKGRFTISRDDSKNTLFLQMNSLKTEDTAVYYCTTPSNSGSYYNYFSVMDVWGQGTTVTVSSGGGGSGGGGSGGGGSELVMTQSPSSLSASVGDRVTITCRTSQSISSYLNWFQQKPGKAPKLLIFAASSLQSGVPSRFSGSGSGTDFTLTISSLQPEDFATYYCQQTYSMPFTFGPGTKVEIK | 1 |
| 18182-H12 (scFv, scFv in bacterial lysate, detected with anti-Flag M2) scFv: EVQLLESGGGLVQPGGSLRLSCAASGFTFSSYAMSWVRQAPGKGLEWVSTISGSGGGTYYADSVKGRFTISRDNSKNTLYLQMNSLRAEDTAVYYCATGKGVHLGFDYWGQGTLVTVSSGGGGSGGGGSGGGGSELMLTQPHSVSVAPGQTARITCGGNNIGSKSVHWYQQKPGQAPVLVVYDDNDRPSGIPERFSGSNFGNTATLIISRVEAGDEADYYCQVWDSSSDHVVFGGGTKLTVL | 1 |
